System: NCI-H460 lung
Assay: NCI tumour cell line growth inhibition, 48 h
measured-property: TGI

[[record]]
molecule = "c1csc(-c2cc(-c3ccsc3)c(-c3cccs3)s2)c1"
test_system = "NCI-H460 lung"
result = "> 100 µM"

[[record]]
molecule = "O=C(Cc1ccccc1)NN1C(=O)C(Cl)C1c1cc(Br)cc(Br)c1O (stereo unspecified)"
test_system = "NCI-H460 lung"
result = "22.4 µM"

[[record]]
molecule = "O=S(=O)(O)c1cc(O)c2c(O)c(N=Nc3ccc(/C=C/c4ccc(N=Nc5c(S(=O)(=O)O)cc6cc(S(=O)(=O)O)cc(O)c6c5O)cc4S(=O)(=O)O)c(S(=O)(=O)O)c3)c(S(=O)(=O)O)cc2c1"
test_system = "NCI-H460 lung"
result = "> 100 µM"

[[record]]
molecule = "N#C/C(=C/c1cccs1)c1cccs1"
test_system = "NCI-H460 lung"
result = "> 100 µM"

[[record]]
molecule = "CN(C)CCCNC(=O)c1cc(NC(=O)CCCn2c3ccccc3c3ccccc32)cn1C"
test_system = "NCI-H460 lung"
result = "> 100 µM"

[[record]]
molecule = "CCOC(=O)c1c2ccccc2n2c(=O)n(C)nnc12"
test_system = "NCI-H460 lung"
result = "> 100 µM"

[[record]]
molecule = "CCCC/C=C1\\CCC(CN2CCOCC2)C1=O (stereo unspecified)"
test_system = "NCI-H460 lung"
result = "38.2 µM"

[[record]]
molecule = "CN(C)CC1CCC(CN(C)C)C1=NO (stereo unspecified)"
test_system = "NCI-H460 lung"
result = "> 10 µM"

[[record]]
molecule = "CCC1N2CCCCC2[C@@H]2c3[nH]c4ccccc4c3CCN12 (stereo partly specified)"
test_system = "NCI-H460 lung"
result = "> 100 µM"

[[record]]
molecule = "S=c1scc(-c2ccc(Cl)cc2)n1OC1CCCC1"
test_system = "NCI-H460 lung"
result = "> 100 µM"

[[record]]
molecule = "O=C(c1cccs1)N(C(=S)OCc1ccccn1)c1ccccc1"
test_system = "NCI-H460 lung"
result = "> 100 µM"

[[record]]
molecule = "COc1cccc2c1[C@H](OC)[C@]13O[C@@]1(C2=O)[C@H](O)[C@H](C)[C@@](O)(C(=O)[C@@H]1O[C@H]1C)[C@@H]3O"
test_system = "NCI-H460 lung"
result = "0.617 µM"

[[record]]
molecule = "COC(=O)C(=O)C(C(=O)C(=O)Nc1ccc([N+](=O)[O-])cc1C#N)c1nc2ccc([N+](=O)[O-])cc2[nH]c1=O (stereo unspecified)"
test_system = "NCI-H460 lung"
result = "> 100 µM"

[[record]]
molecule = "COc1ccccc1NC(=O)N/C(N)=N/c1nc2ccccc2s1"
test_system = "NCI-H460 lung"
result = "> 100 µM"

[[record]]
molecule = "COc1ccc(-n2nc(C)c3c(Nc4ccc(NC(=O)Nc5cc(C(F)(F)F)ccc5F)cc4)ncnc32)cc1"
test_system = "NCI-H460 lung"
result = "8.7 µM"

[[record]]
molecule = "N=c1nc(N)nc(N)n1-c1ccc(S(N)(=O)=O)cc1"
test_system = "NCI-H460 lung"
result = "> 100 µM"

[[record]]
molecule = "CC(=O)c1ccc(NCn2nc(-c3ccccc3O)oc2=S)cc1"
test_system = "NCI-H460 lung"
result = "> 100 µM"

[[record]]
molecule = "CNC(=S)N/N=C(\\C)c1ccc(OC)cc1O"
test_system = "NCI-H460 lung"
result = "> 100 µM"

[[record]]
molecule = "COc1cc2c3c(n(CCCn4cccn4)c(=O)c2cc1OC)-c1cc2c(cc1C3=O)OCO2"
test_system = "NCI-H460 lung"
result = "13.3 µM"

[[record]]
molecule = "COc1ccc(C(F)(F)F)cc1NC(=O)O/N=C(/Cl)C(C)C"
test_system = "NCI-H460 lung"
result = "> 64.2 µM"

[[record]]
molecule = "C[n+]1ccccc1/C=C/c1ccc2c(c1)OCO2"
test_system = "NCI-H460 lung"
result = "> 10 µM"

[[record]]
molecule = "CC(=O)O[C@H]1CC[C@]2(C)[C@H]3C(=O)C=C4[C@@H]5C[C@](C)(C(=O)N6CCCNCC6)CC[C@]5(C)CC[C@@]4(C)[C@]3(C)CC[C@H]2C1(C)C"
test_system = "NCI-H460 lung"
result = "3.11 µM"

[[record]]
molecule = "Nc1nc(SCCC/C=C/B(O)O)nc2c1ncn2C1OC(CO)C(O)C1O (stereo unspecified)"
test_system = "NCI-H460 lung"
result = "> 243 µM"

[[record]]
molecule = "CCCC(=O)C(CC)/C(CCC(=O)N(Cc1ccccc1)Cc1ccccc1)=N/NC(=O)C[N+](C)(C)C (stereo unspecified)"
test_system = "NCI-H460 lung"
result = "> 100 µM"

[[record]]
molecule = "CN[C@@H]1[C@H](O)[C@H](NC)[C@H]2O[C@@]3(O)C(=O)C[C@@H](C)O[C@H]3O[C@@H]2[C@H]1O"
test_system = "NCI-H460 lung"
result = "> 100 µM"

[[record]]
molecule = "COc1ccc(C(=O)N=C2N(c3ccccc3)C(=Nc3ccccc3)C(=Nc3ccccc3)N2c2ccccc2)cc1"
test_system = "NCI-H460 lung"
result = "> 100 µM"

[[record]]
molecule = "O=C1c2ccccc2C(=O)N1C/C=N/NS(=O)(=O)c1ccc(Cl)cc1"
test_system = "NCI-H460 lung"
result = "> 100 µM"

[[record]]
molecule = "Cn1c(-c2c(N)n(Cc3ccc(Cl)cc3)c3nc(C#N)c(C#N)nc23)nc2ccccc21"
test_system = "NCI-H460 lung"
result = "25.7 µM"

[[record]]
molecule = "O=C(O/N=C1/CCC/C1=C\\c1ccccc1)c1ccc(Cl)cc1"
test_system = "NCI-H460 lung"
result = "> 31.6 µM"

[[record]]
molecule = "Cc1nnc2nc(-c3ccc(Cl)cc3Cl)cc(-c3ccc(Cl)cc3)n12"
test_system = "NCI-H460 lung"
result = "> 100 µM"

[[record]]
molecule = "COc1ccc(-n2c(C)nc3ccc(N=Cc4ccccc4)cc3c2=O)cc1"
test_system = "NCI-H460 lung"
result = "> 100 µM"

[[record]]
molecule = "C1CSCCSS[C@@H]2CCCCC2SC1 (stereo partly specified)"
test_system = "NCI-H460 lung"
result = "> 100 µM"

[[record]]
molecule = "CN1C(=O)NC2(O)c3ccccc3C(=O)C12O (stereo unspecified)"
test_system = "NCI-H460 lung"
result = "> 100 µM"

[[record]]
molecule = "O=c1[nH]nc2c3n[nH]c(=O)n3c3ccccc3n12"
test_system = "NCI-H460 lung"
result = "> 100 µM"

[[record]]
molecule = "NC(Cc1ccc2oc3cc(=O)c4ccccc4c-3nc2c1)C(=O)O (stereo unspecified)"
test_system = "NCI-H460 lung"
result = "32 µM"

[[record]]
molecule = "Cc1ccc(S(=O)(=O)NC(C)C(=O)O)cc1 (stereo unspecified)"
test_system = "NCI-H460 lung"
result = "> 100 µM"

[[record]]
molecule = "COc1ccccc1OCc1nnc(SCC(=O)O)n1-c1ccccc1"
test_system = "NCI-H460 lung"
result = "> 100 µM"

[[record]]
molecule = "C/C(=C\\c1ccccc1)C(O)S(=O)(=O)O (stereo unspecified)"
test_system = "NCI-H460 lung"
result = "> 100 µM"

[[record]]
molecule = "COc1cccc(NC(=O)c2ccc(C(F)(F)F)nc2Nc2ccc(Cl)cc2C)c1"
test_system = "NCI-H460 lung"
result = "24.1 µM"

[[record]]
molecule = "COc1cc([C@@H]2c3cc4c(cc3[C@@H](NC(=O)c3ccc(C(C)=O)cc3)C3COC(=O)[C@@H]32)OCO4)cc(OC)c1O (stereo partly specified)"
test_system = "NCI-H460 lung"
result = "1.53 µM"

[[record]]
molecule = "Cc1cc2cc(Oc3ccnc(Nc4cccc(CS(=O)(=O)NCCN(C)C)c4)n3)ccc2[nH]1"
test_system = "NCI-H460 lung"
result = "18.8 µM"


Data provenance is PubChem BioAssay (NCI).
